Test system: A549
Assay: Cytotoxic activity against human lung cancer A549 cell line was determined
Type: functional
Details: read-out: ED50 (the source's name)
Measured pEC50, listed per entry.
Hey, just a heads up that pEC50 is the negative log base 10 of the concentration in molar.

COc1ccc(C2=C(c3cc(OC)c(OC)c(OC)c3)C(=O)OC2)cc1O: 7.79
COc1cc(C2=C(c3ccc(N)cc3)COC2=O)cc(OC)c1OC: 7.26

Suppose we examine the molecule `COc1cc(-n2c(-c3ccc4c(c3)OCO4)coc2=O)cc(OC)c1OC` ; what pEC50 value has been reported?
7.19

Suppose we examine the molecule `COc1cc(C2=C(c3ccc4c(c3)OCO4)COC2=O)cc(OC)c1OC` ; what pEC50 value has been reported?
7.00

Suppose we examine the molecule `COc1cc([C@@H]2c3cc4c(cc3C[C@H]3COC(=O)[C@@H]32)OCO4)cc(OC)c1OC` ; what pEC50 value has been reported?
7.81

---

Measured pEC50, listed per entry.
Tested on: MCF7
Assay: Cytotoxic activity against human breast cancer MCF-7 cell line was determined
Format: functional
Conditions: read-out: ED50 (the source's name)
Hey, just a heads up that pEC50 is the negative log base 10 of the concentration in molar.

Known pEC50 results, listed for orientation:
COc1cc(C2=C(c3ccc(N)cc3)COC2=O)cc(OC)c1OC: 7.48
COc1cc(C2=C(c3ccc4c(c3)OCO4)COC2=O)cc(OC)c1OC: 7.09
COc1ccc(C2=C(c3cc(OC)c(OC)c(OC)c3)C(=O)OC2)cc1O: 7.94
COc1cc(-n2c(-c3ccc4c(c3)OCO4)coc2=O)cc(OC)c1OC: 7.19

Query for MCF7: what pEC50 does the record show for `COc1cc([C@@H]2c3cc4c(cc3C[C@H]3COC(=O)[C@@H]32)OCO4)cc(OC)c1OC` ?
7.93

Data origin: ChEMBL document CHEMBL1135215
